// provenance: paper PMC4122235

The next entries give measured pKd for CacKam (Catenulispora acidiphila, UniProt C7Q5P8).
Answers are plain numbers, as −log10 of the molar value.

# molecule, pKd
records = [
    ("C[S+](CC[C@H](N)C(=O)O)C[C@H]1O[C@@H](n2cnc3c(N)ncnc32)[C@H](O)[C@@H]1O (some centres unmarked) [SAM]", 4.36),
]

Now for the molecule whose pKd we want.
Ask: Input Nc1ncnc2c1ncn2[C@@H]1O[C@H](CSCC[C@H](N)C(=O)O)[C@@H](O)[C@H]1O [SAH] , output reported pKd.
Result: 5.57

---

target.or.system: CarKam
experiment: isothermal titration calorimetry, single-site fit
Type: binding, Candidatus Arthromitus sp. SFB-mouse-NYU
condition.parameters: read-out: Kd (μM) / SAM; 25 °C, 20 mM Tris pH 7.5, 10 mM magnesium acetate, 250 mM NH4Cl, 10 % glycerol, 6 mM β-mercaptoethanol; no 30S subunit
observation.type: Kd
// unit must come after the numeric part

Ask: Input C[S+](CC[C@H](N)C(=O)O)C[C@H]1O[C@@H](n2cnc3c(N)ncnc32)[C@H](O)[C@@H]1O (stereo partly shown) , output reported Kd.
Result: 24 µM
